Target: UniProtKB O43614
Experiment: Calcium accumulation in cells (FLIPR), antagonism of orexin A, human orexin 2 receptor
Conditions: calcium accumulation, antagonism of orexin A, Cheng-Prusoff corrected; read-out: FLIPR hOx2R Ki
I'd be grateful if you could share measured pKi for these entries.
pKi field: float, defined as -log10 of concentration (mol/L).

response.value for `Cc1cc(C#N)nc(N2CCC3(CC2)NCCN(Cc2c[nH]c4ccccc24)C3=O)n1` (field: pKi) = 7.70

The compound `N#Cc1ccnc(N2CCC3(CCC(=O)N3Cc3cccc4[nH]ccc34)CC2)c1` showed pKi equal to 7.35

The recorded pKi for entry `COc1ccnc(N2CCC3(CCN(Cc4n[nH]c5ccccc45)C3=O)CC2)n1` equals 6.17

// field: pKi; key: `COc1ccc(-c2cn(C)nc2CN2CCNC3(CCN(c4nc(C)cc(C)n4)CC3)C2=O)cc1OC` ; value = 6.40

Lookup result for `COc1cc(-c2nn(C)nc2CN2CCNC3(CCN(c4nc(C)cc(C)n4)CC3)C2=O)ccn1` ; measured pKi: 7.32

Recorded result, `O=C1COCC2(CCN(c3cnc4ccccc4n3)CC2)N1Cc1cccc(-c2ccccn2)c1` , pKi: 6.11

# pKi (compound: COc1ccnc(N2CCC3(CCN(Cc4ccccc4-c4nc(C)no4)C3=O)C2)n1 (stereo not shown) ) is 6.17

compound `COc1cc(C)nc(N2CCC3(CCN(Cc4n[nH]c5ccccc45)C3=O)CC2)n1` , pKi observed: 6.93

Sure, the documented pKi for COc1ccnc(N2CCC3(CCCN(Cc4c[nH]c5ncccc45)C3=O)C2)n1 (stereo not shown) is 6.15

Record `COCCOc1cccc(-c2nn(C)nc2CN2CCNC3(CCN(c4nc(C)cc(C)n4)CC3)C2=O)c1` , field pKi: 8.05

Note to self: pKi recorded for `O=C1CCC2(CCN(c3cnc4ccccc4n3)CC2)N1Cc1cccc2[nH]ccc12` was 8.68

Lab book: pKi of COc1cc(C)nc(N2CCC3(CCCN(Cc4ccccc4-c4nc(C)no4)C3=O)C2)n1 (stereo not shown) noted as 7.04

For record `Cc1cc(C)nc(N2CCC3(CC2)C(=O)N(Cc2c[nH]c4ccccc24)CCN3C)n1` the listed pKi is 6.35

// pKi value for `COCc1ccc(-c2cn(C)nc2CN2CCNC3(CCN(c4nc(C)cc(C)n4)CC3)C2=O)cc1` : 5.91

The reported pKi of the compound `COc1cccc(-c2n[nH]nc2CN2CCNC3(CCN(c4nc(C)cc(C)n4)CC3)C2=O)c1` was 8.70

Just so you know, measured pKi for COc1cc(C)nc(N2CCC3(CCN(Cc4nn(C)nc4-c4ccccc4)C3=O)C2)n1 (stereo not shown) came out at 7.54

* * *

Target: human orexin 2 receptor (Homo sapiens)
Assay: Calcium accumulation in cells (FLIPR), antagonism of orexin A, human orexin 2 receptor
Conditions: calcium accumulation, antagonism of orexin A, Cheng-Prusoff corrected; read-out: FLIPR hOx2R Ki
MEASUREMENT NAME: pKi
Remember, pKi is on a log scale: it is -log10 of the molar concentration.

Measured pKi, CC(C)c1ccnc(N2CCC3(CCN(Cc4c[nH]c5ccccc45)C3=O)C2)n1 (centres unmarked) : 6.55

So, `COCc1noc(-c2ccccc2CN2CCNC3(CCN(c4nc(C)cc(C)n4)CC3)C2=O)n1` ? Its pKi was 7.34

The value of pKi measured for the compound `COc1cccc(-c2sc(C)nc2CN2CCNC3(CCN(c4nc(C)cc(OC)n4)CC3)C2=O)c1` turned out to be 8.10

Input `COc1ccnc(N2CCC3(CC2)OCCN(Cc2c[nH]c4ccccc24)C3=O)n1` . Output pKi: 7.21

GET /value?item= O=C1N(Cc2c[nH]c3ccccc23)CCC12CCN(c1cnc3ccccc3n1)C2 (centres unmarked) &field=pKi returns 6.37

Note to self: pKi recorded for `Cn1ccc2c(CN3C(=O)COCC34CCN(c3cnc5ccccc5n3)CC4)cccc21` was 6.69

Value of measured pKi for the entry Cc1ccnc(N2CCC3(CCN(Cc4c[nH]c5ccccc45)C3=O)C2)n1 (centres unmarked) : 6.41

What the record says about `Cc1cc(C)nc(N2CCC3(CC2)NCCN(Cc2nn(C)nc2-c2cccc(OC(C)C)c2)C3=O)n1` : pKi is 8.43

What the record says about `COc1ccnc(N2CCC3(CCN(Cc4ccccc4-c4nc(C)no4)C3=O)CC2)n1` : pKi is 6.53

GET /value?item= `Cc1cc(C)nc(N2CCC3(CC2)NCCN(Cc2nn(C)cc2-c2cccc(F)c2)C3=O)n1` &field=pKi returns 6.35

Sample `COc1cccc(-c2oc(C)nc2CN2CCNC3(CCN(c4nc(C)cc(C)n4)CC3)C2=O)c1` ; pKi observed: 8.70

So for `COc1cccc(-c2oc(C)nc2CN2CCNC3(CCN(c4nc(C)cc(OC)n4)CC3)C2=O)c1` , the logged pKi turned out to be 8.52

Lookup result for O=C1N(Cc2c[nH]c3ccccc23)CCCC12CCN(c1nc3ccccc3o1)C2 (centres unmarked) ; measured pKi: 6.77

Per the record, COc1cccc(-c2n[nH]nc2CN2CCCC3(CCN(c4nccc(OC)n4)C3)C2=O)c1 (centres unmarked) has pKi of 7.19

Per the records, this compound ( `COc1cccc(-c2ocnc2CN2CCNC3(CCN(c4nccc(C)n4)CC3)C2=O)c1` ) has pKi equal to 7.08

Per the records, this compound ( `COc1ccnc(N2CCC3(CC2)NCCN(Cc2c[nH]c4ccccc24)C3=O)n1` ) has pKi equal to 7.00

Summary for this compound, Cc1cccc(N2CCC3(CCN(Cc4c[nH]c5ccccc45)C3=O)C2)n1 (centres unmarked) : pKi is 6.53

* * *

Molecular target: human orexin 2 receptor (Homo sapiens, UniProt O43614)
Construct: expressed in transfected cells
Sequence (O43614 1-444): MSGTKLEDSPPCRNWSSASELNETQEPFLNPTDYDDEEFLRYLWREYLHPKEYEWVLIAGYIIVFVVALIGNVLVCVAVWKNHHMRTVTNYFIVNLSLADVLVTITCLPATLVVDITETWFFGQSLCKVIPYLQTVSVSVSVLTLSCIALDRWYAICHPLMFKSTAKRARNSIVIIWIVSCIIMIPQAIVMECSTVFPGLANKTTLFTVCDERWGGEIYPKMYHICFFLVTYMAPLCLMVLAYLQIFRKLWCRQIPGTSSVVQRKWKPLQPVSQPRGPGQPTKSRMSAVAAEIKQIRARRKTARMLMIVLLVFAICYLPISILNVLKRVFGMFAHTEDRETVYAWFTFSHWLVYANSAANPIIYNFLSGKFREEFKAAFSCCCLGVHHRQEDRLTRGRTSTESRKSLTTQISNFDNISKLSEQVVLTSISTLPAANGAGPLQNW
Assay: Radioligand binding assay ([3H]-SB649868 competition), human orexin 2 receptor
Conditions: radioligand [3H]-SB649868; read-out: Binding hOx2R Kd
MEASUREMENT NAME: Kd (nM)
API: value field is a number in nM; no unit string.

Entry `COCc1cccc(-c2ocnc2CN2CCNC3(CCN(c4nc(C)cc(OC)n4)CC3)C2=O)c1` — recorded Kd = 100

Entry `Cc1ccc(C)c(CN2C(=O)OCC23CCN(c2cnc4ccccc4n2)CC3)c1` — recorded Kd = 152

Per the record, `COCc1cccc(-c2oc(C)nc2CN2CCNC3(CCN(c4nc(C)cc(C)n4)CC3)C2=O)c1` has Kd of 114

Form: compound = `COc1cccc(-c2ocnc2CN2CCNC3(CCN(c4nccc(OC)n4)CC3)C2=O)c1` ; Kd = 230

Input COc1cc(C)nc(N2CCC3(CCCN(Cc4ccccc4-c4nc(C)no4)C3=O)C2)n1 (centres unmarked) . Output Kd: 210

Lab note: measured Kd of `Cc1cc(C)nc(N2CCC3(CC2)OCCN(Cc2n[nH]nc2-c2ccccc2)C3=O)n1` was 241

What the record says about `Cc1cc(C)nc(N2CCC3(CC2)OCCN(Cc2ccccc2-c2nc(C)no2)C3=O)n1` : Kd is 144

The recorded Kd for entry `O=C1CCC2(CCN(c3cnc4ccccc4n3)CC2)N1Cc1cccc2[nH]ccc12` equals 32

* * *

Molecular target: human orexin 2 receptor (Homo sapiens)
Construct: expressed in transfected cells
Assay: Radioligand binding assay ([3H]-SB649868 competition), human orexin 2 receptor
Conditions: radioligand [3H]-SB649868; read-out: Binding hOx2R Kd
MEASUREMENT NAME: Kd (nM)
Give just the numeric value; nM need not be written.

Kd on human orexin 2 receptor (Homo sapiens) for Cc1cc(C)nc(N2CCC3(CC2)OCCN(Cc2c[nH]c4ccc(F)cc24)C3=O)n1 [Example 2.6] is 26

Lab entry: human orexin 2 receptor (Homo sapiens) assay, compound COc1cc(C)nc(N2CCC3(CC2)OCCN(Cc2c[nH]c4ncccc24)C3=O)n1 [Example 2.19] , Kd = 184

Result for CCc1cccc(-c2cn(C)nc2CN2CCNC3(CCN(c4nc(C)cc(C)n4)CC3)C2=O)c1 [Example 1.67] , tested on human orexin 2 receptor (Homo sapiens), Kd: 50

Test item COc1cc(C)nc(N2CCC3(CCN(Cc4nn(C)nc4-c4cccc(C)c4)C3=O)C2)n1 (centres unmarked) [Example 5.44] ; human orexin 2 receptor (Homo sapiens); reported Kd was 20

Summary line: O=C1COCC2(CCN(c3cnc4ccccc4n3)CC2)N1Cc1cccc2[nH]ccc12 [Example 8.9] , human orexin 2 receptor (Homo sapiens), reported Kd = 136

Case O=C1N(Cc2c[nH]c3ccccc23)CCC12CCN(c1cnc3ccccc3n1)CC2 [Example 3.2] , human orexin 2 receptor (Homo sapiens), Kd recorded as 121

# COCc1cccc(-c2nn(C)nc2CN2CCNC3(CCN(c4nc(C)cc(C)n4)CC3)C2=O)c1 [Example 1.76] with human orexin 2 receptor (Homo sapiens): Kd is 174

Lab entry: human orexin 2 receptor (Homo sapiens) assay, compound COc1cc(C)nc(N2CCC3(CC2)NCCN(Cc2n[nH]c4ccccc24)C3=O)n1 [Example 1.65] , Kd = 58
